test system: M19-MEL; experiment: NCI tumour cell line growth inhibition, 48 h
Activity calls are given as the source filed them. No stated cut-off is given here; in the data, active = GI50 up to about 1.1 µM and inactive = higher.
measured.attribute: GI50

Look over these answered cases.
CN(C)CCNC(=O)c1cccc2[nH]c(-c3ccccc3)nc12 :: 19.4 µM (inactive)
COC(=O)C(=O)C1(CCC(C)=O)c2ccccc2-c2c(C)ccc(C)c21 (configuration not stated) :: 64 µM (inactive)
CN(C)[C@@H]1C(O)=C(C(N)=O)C(=O)[C@@]2(O)C(O)=C3C(=O)c4c(O)cccc4C[C@H]3C[C@@H]12 :: 1.68 µM (inactive)
Cc1cc2c(c(C#N)c1C)NC(=O)C(CC(=O)O)C2=O (configuration not stated) :: > 100 µM (inactive)
O=C(CSc1nnc(Cc2ccccc2)o1)Nc1cccc(Cl)c1 :: > 100 µM (inactive)

Query (compound): Cc1ccc(NC(=O)CC2SC(Nc3ccc(Cl)cc3)=NC2=O)cc1C (configuration not stated) ; field requested: GI50 17.7 µM (inactive)

Query (compound): `Cc1c2cnccc2c(C)c2c1c1ccccc1n2CCOC(=O)c1ccccc1` ; field requested: GI50 13.9 µM (inactive)
